- assay.explanation: FRG1 expression reporter modulators in myotubes – cell-based, C2C12 myotubes, firefly/Renilla luciferase, luminescence, FRG1 inhibition for FSHD, primary screen (AID 1084)
- condition.description: FRG1 promoter luciferase, higher = more signal, called active from +8 up or from −8 down
# z-score per record follows
In your answer, state the number alone without any accompanying words.

Request: # lookup: z-score of `CCCCCCC#C[Si](O[C@H](c1ccccc1)c1cn(Cc2cccc(Cl)c2)nn1)(C(C)C)C(C)C`
Result: -0.891

----------
- assay.explanation: compound effects on differentiated 3T3-L1 adipocyte viability – cell-based, 3T3-L1 adipocytes, calcein-AM fluorescence, 48 h, basal, profiling panel (AID 1163); note: test concentration not given here
- condition.description: 3T3-L1 adipocytes viability, higher = more signal
Field 'label' (enum: y / n). Set to y when z-score is strictly under -0.04; else n.

Below are worked cases with known answers.
O=C1NC(=O)C2C1C=CC(C(O)CCc1ccccc1)N2Nc1ccccn1 (stereo unspecified) | n
CC(C)NC(=O)[C@@H]1c2ccccc2C(=O)N(Cc2cc(C(F)(F)F)cc(C(F)(F)F)c2)[C@H]1c1ccc(CO)cc1 | n
COc1ccc(C#Cc2ccc3c(c2)[C@]2(C(=O)N3)[C@H](C(N)=O)[C@H]3C(=O)O[C@H](c4ccccc4)[C@H](c4ccccc4)N3[C@@H]2c2ccc(O)cc2)cc1 | n
CCCNC(=O)[C@@]1(Sc2ccc(C)cc2)CC(=O)N(Cc2ccccc2)[C@@H]1c1ccc(CO)cc1I | y
COc1ccc([Si](C)(C)[C@@H]2[C@@H](CC(=O)N(CCO)Cc3ccccc3)O[C@]3(C(=O)N(C)c4c(Br)cc(C)cc43)[C@H]2C)cc1 | n
CCOC(=O)C1=CC[C@@H](c2ccccc2)N(S(=O)(=O)c2ccc(C)cc2)[C@H]1C=C(C)C | y

Request: Please check: z-score for `O=c1c2ccc(Br)cc2nc(-c2ccccc2)n1Cc1cccc(O)c1` , strictly under -0.04 or not?
Result: n

Request: Param item: `COC(=O)[C@@]1(Cc2ccc(OC)cc2)[C@H]2c3cc(C(=O)N4CCCC4)n(Cc4ccc(C)o4)c3C[C@H]2CN1C(=O)c1ccccc1`
Result: y

Request: Try this molecule next: `C=C(/C(=C/C[C@@H](OC(=O)c1ccncc1)c1cccc(OCCO)c1)c1cc(C(=O)OC)ccc1OC)C(C)C`
Result: n

Request: Cool, now `CCCN1C(=O)[C@@]2(Cc3ccccc3)N=C(c3ccc(OCCCO)cc3)O[C@H]2c2ccccc21`
Result: n

Request: Entry to check: `Cc1ccc(S[C@]2(C(=O)O)CC(=O)N(C3CCCCC3)[C@@H]2c2ccc(CO)cc2)cc1`
Result: y

----------
- Test system: Lefty1
- assay.explanation: Lefty1 protein binding to printed compounds – biochemical, small-molecule microarray, 635/667 nm fluorescence, primary screen (AID 1139)
- condition.description: fluorescence 635/667, higher = more signal
Examples of compounds with documented composite z-score follow.
// response body must contain only the number

Request: # get_value(readout='composite z-score', item= `COc1cc2c(cc1OC)CN(C(=O)[C@@H]1[C@H]3C(=O)O[C@H](c4ccccc4)[C@H](c4ccccc4)N3[C@H](c3ccc(O)cc3)[C@@]13C(=O)Nc1ccc(C#CCNC(N)=O)cc13)CC2` )
Result: 0.837

Request: Further, for CC(C)CCC[C@@H](C)[C@H]1CC[C@@]2(C)C3=C(CC[C@]12C)[C@@]1(C)CC[C@H](OC(=O)C(C)(C)C)C(C)(C)C1CC3 (stereo partly drawn) ?
Result: 0.543

Request: `COCCOC(=O)N1C(=O)[C@@]2(c3cc(C#CC4(O)CCCCCC4)ccc31)[C@H](C(=O)NC[C@H](O)c1ccccc1)[C@H]1C(=O)O[C@H](c3ccccc3)[C@H](c3ccccc3)N1[C@@H]2c1ccc(OCCO)cc1` ?
Result: 0.473

Request: Also check `COC(=O)[C@@]1(Cc2ccc(OC)cc2)[C@H]2c3cc(C(=O)N4CCCC4)n(CCc4ccc(O)c(OC)c4)c3C[C@H]2CN1C(=O)c1ccccc1`
Result: -1.78

Request: Same thing, different compound: CN1C(=O)C2C=CC(C(O)COCc3ccccc3)N(Nc3ccccc3)C2C1=O (stereo not drawn)
Result: 0.135

Request: Cool, now `C[N+](C)(C)CCCC[C@@H]1NC(=O)[C@H]2C[C@@H](C(=O)NCCCCCCN)[C@@H](c3cccc(OCCO)c3)N2C1=O`
Result: 1.67

Request: Now try `COCCCNC(=O)[C@@]1(Cc2ccccc2I)c2ccccc2C(=O)N(Cc2ccccc2Cl)[C@H]1c1ccc(CO)cc1` .
Result: 0.246

Request: Would you mind doing `CC(C)NC(=O)[C@@]1(Cc2ccccc2I)c2ccccc2C(=O)N(Cc2ccccc2C(F)(F)F)[C@H]1c1ccc(CO)cc1` as well?
Result: 0.266

Request: What about `COc1ccc([Si](C)(C)[C@@H]2[C@@H](CCO)O[C@]3(C(=O)N(Cc4ccc(N5C(=O)c6ccccc6Oc6ccccc65)cc4)c4ccccc43)[C@H]2C)cc1` ?
Result: 0.0179

Request: Item: CC(C)=CCCC(C)=CC(O)C1C=CC2C(=O)N(c3ccccc3)C(=O)C2N1Nc1ccc([N+](=O)[O-])cc1 (stereo not drawn)
Result: 0.253

Request: Check O=C1OCC=C[C@H]2OC34C=CCN(CCN5CCOCC5)C(=O)[C@H]3N(CCCCCO)C(=O)[C@@H]4[C@@H]12 (stereo partly drawn) too.
Result: -0.0262

Request: Now consider `CC(=O)NCCCC[C@@H]1NC(=O)[C@@H]2C[C@H](C(=O)NCCCC[N+](C)(C)C)[C@H](c3cccc(OCCO)c3)N2C1=O` and answer again.
Result: 0.512

Request: Likewise for C=CCC(OC(C)=O)[C@@H]1[C@@H](N(Cc2cccc3ccccc23)C(=O)Cc2ccc(F)cc2)c2cc(OCCCO)ccc2N1C(=O)Cc1ccc(OC)cc1 (stereo partly drawn) ?
Result: 0.391
